- subject_of_test: T1, human Protein S (UniProt P07225 42-676)
- T1 chain: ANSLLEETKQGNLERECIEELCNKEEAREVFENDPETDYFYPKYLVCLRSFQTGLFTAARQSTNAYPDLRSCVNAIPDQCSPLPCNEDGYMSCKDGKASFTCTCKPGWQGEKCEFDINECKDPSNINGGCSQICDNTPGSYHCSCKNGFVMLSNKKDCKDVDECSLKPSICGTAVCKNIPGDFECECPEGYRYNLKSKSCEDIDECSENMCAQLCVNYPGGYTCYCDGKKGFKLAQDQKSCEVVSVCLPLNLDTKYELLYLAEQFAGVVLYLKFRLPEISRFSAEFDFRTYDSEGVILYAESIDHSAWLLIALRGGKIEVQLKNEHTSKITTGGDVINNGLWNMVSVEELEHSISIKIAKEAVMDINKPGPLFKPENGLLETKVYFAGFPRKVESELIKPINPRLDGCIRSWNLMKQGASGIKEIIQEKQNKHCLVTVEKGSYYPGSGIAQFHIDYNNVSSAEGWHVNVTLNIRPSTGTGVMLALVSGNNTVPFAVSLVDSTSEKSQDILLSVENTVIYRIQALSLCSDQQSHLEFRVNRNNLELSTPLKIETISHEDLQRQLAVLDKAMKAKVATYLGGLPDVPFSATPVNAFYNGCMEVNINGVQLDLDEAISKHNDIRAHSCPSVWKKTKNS
- protocol: LANCE competition
pIC50: −log10 of the molar value.
Reported pIC50 values follow for various binders
measured_parameter: pIC50

INSERT INTO assay_data (binder, measured_parameter, endpoint_value) VALUES
  ('Ac-TGHVSAGWYDYNFDHYLEFT-NH2 [JBS2586]', 'pIC50', 7.96),
  ('Ac-TGLVSAGWYDYNFDQYREFT-NH2 [JBS2847]', 'pIC50', 8.27),
  ('Ac-TGLVSAGWYDYNFDHYVEFT-NH2 [JBS2905]', 'pIC50', 8.23),
  ('Ac-GGHVSAGWYDYNFDLYREFT-NH2 [JBS2682]', 'pIC50', 8.12),
  ('Ac-TGHVSAGWYDYNSDHYREFT-NH2 [JBS2659]', 'pIC50', 7.79),
  ('Ac-TGLVSAGWYDYNFDVYREFT-NH2 [JBS2903]', 'pIC50', 8.51),
  ('Ac-TGLVSAGWYDYNNDHYREFT-NH2 [JBS2825]', 'pIC50', 8.36),
  ('Ac-TGHVSAGWYDYNFDHYRPFT-NH2 [JBS2645]', 'pIC50', 8.03),
  ('Ac-TSHVSAGWYDYNFDHYREFT-NH2 [JBS2649]', 'pIC50', 7.50),
  ('Ac-GGHVSAGWYDYNADHYREFT-NH2 [JBS2684]', 'pIC50', 7.90),
  ('Ac-TGHVSAGWYDYNFDFYREFT-NH2 [JBS2623]', 'pIC50', 7.82),
  ('Ac-KGHVSAGWYDYNFDHYREFT-NH2 [JBS2590]', 'pIC50', 7.94),
  ('Ac-TGLVSAGWYDYNFDIYREFT-NH2 [JBS2788]', 'pIC50', 8.66),
  ('Ac-TGLVSAGWYDYNFDHYIEFT-NH2 [JBS2790]', 'pIC50', 8.47);
